- target entity: adenosine A2A receptor (Homo sapiens (Human), UniProt P29274)
- Sequence (P29274 whole entry): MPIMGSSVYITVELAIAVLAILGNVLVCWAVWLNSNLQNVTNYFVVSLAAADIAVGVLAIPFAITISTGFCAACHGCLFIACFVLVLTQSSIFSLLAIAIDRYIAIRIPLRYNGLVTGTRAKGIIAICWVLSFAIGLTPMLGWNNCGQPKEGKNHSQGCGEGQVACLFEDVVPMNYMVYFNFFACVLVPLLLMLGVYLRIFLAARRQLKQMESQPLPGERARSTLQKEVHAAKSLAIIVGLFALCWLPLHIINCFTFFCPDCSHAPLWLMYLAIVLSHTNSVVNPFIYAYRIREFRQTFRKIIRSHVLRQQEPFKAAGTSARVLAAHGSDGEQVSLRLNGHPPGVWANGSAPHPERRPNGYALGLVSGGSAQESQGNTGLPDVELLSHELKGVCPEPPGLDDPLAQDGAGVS
- assay summary: Adenosine receptor activity assay (Table 1), A2A activity
- Assay type: biochemical
- measurement context: read-out: Ave A2A cAMP IC50
pIC50: −log10 of the molar value.
Reported values of pIC50 for individual entries

In plain terms, O=C(c1nc(NCc2cncc(F)c2)nc2ccsc12)N1CCNC1 [Example Z149] has a documented pIC50 of < 6.30

More entries:
Recorded pIC50 (molecule C[C@H](Nc1nc(C(=O)NCCO)c2sccc2n1)c1cccnc1 [Example Z145] ): 6.30 to 7.00

// pIC50 value for C[C@H](Nc1nc(C(=O)N[C@@H]2CC[C@@H](O)C2)c2sccc2n1)c1cncc(F)c1 [Example Z395] : 6.30 to 7.00

Notebook: COC1(C)CN(C(=O)c2nc(N[C@@H](C)c3ccccn3)nc3cc(C)sc23)C1 [Example Z483] , pIC50 read as 6.30 to 7.00

Data point: O=C(c1nc(NCc2cccc(F)c2)nc2ccsc12)N1CCN(CCCc2ccccc2)CC1 [Example Z80] ; pIC50 = < 6.30

Measured pIC50 of CCC(Nc1nc(C(=O)N2CC[C@@H](OC)C2)c2sccc2n1)c1cccnc1 (some centres unmarked) [Example Z26] : 7.00 to 7.30

According to the records, this molecule CNC(=O)N1CCN(C(=O)c2nc(N[C@@H](C)c3cncc(F)c3)nc3ccsc23)C1 [Example Z585] displays pIC50 of 6.30 to 7.00

Just so you know, measured pIC50 for C[C@H](Nc1nc(C(=O)N2CC(O)C2)c2sc(N)cc2n1)c1cccnc1 [Example Z248] came out at < 6.30
